Hey, just so you know, these numbers are from patent US8158638B2.

Kindly state GI50 for each of the entries shown.
Tested on: human lung cancer cell line NCI-H460
Test: Cell growth inhibition assay (MTT), NCI-H460
Type: cell-based
Conditions: Homo sapiens, NCI-H460, 72 h, read-out: GI50 value (50% growth inhibitory concentration)
Description: A cell growth inhibition assay was performed using two types of cells (human breast cancer cell line SK-BR-3 and human lung cancer cell line NCI-H460). Cells of each type were suspended in a medium and seeded into a 96-well multi-well plate at 500 cells/150 μl/well. […] 5 mg/mL of an MTT (3-(4,5-dimethylthiazol-2-yl)-2,5-diphenyltetrazolium bromide) solution was added at 20 μL per well. […] The absorbance of each well was measured using a plate reader at an OD of 540 nm with a reference of 660 nm. […]
Respond with the bare value in µM.

Problem: // Input: CCNC(=O)CC1=Cc2nn(Cc3ncc(C)c(OC)c3C)c3nc(N)nc(c23)SC1 . Output its GI50 only.
Result: 0.51

Problem: // Input: COc1c(C)cnc(Cn2nc3c4c(nc(N)nc42)SCC(c2cccnc2)=C3)c1C . Output its GI50 only.
Result: 0.25

Problem: // Input: COc1c(C)cnc(Cn2nc3c4c(nc(N)nc42)SCC(C(=O)N2CCC(F)(F)C2)=C3)c1C . Output its GI50 only.
Result: 0.16

Problem: // Input: COc1c(C)cnc(Cn2nc3c4c(nc(N)nc42)SCC(CCn2ccnc2)=C3)c1C . Output its GI50 only.
Result: 0.2
